Cited source: ChEMBL document CHEMBL3856264

- procedure_details: Aqueous solubility of compound in sodium phosphate buffer containing 1% DMSO at pH 6.8
- Assay type: physicochemical
Measured solubility by item
measurement_type: solubility (µM)

compound=Cc1nc(C)c(-c2csc(Nc3ccc(NS(=O)(=O)c4ccc(Cl)cc4)cn3)n2)s1 measurement_type=solubility relational_operator== number=1.2
compound=Cc1nc(C)c(-c2csc(Nc3ccc(C(=O)Nc4ccc(Cl)cc4)cn3)n2)s1 measurement_type=solubility relational_operator== number=10.6
compound="Cc1nc(C)c(-c2csc(Nc3ccc(C(=O)N4C(C)CCCC4C)cn3)n2)s1 (stereo not given)" measurement_type=solubility relational_operator=< number=0.1
compound=Cc1nc(C)c(-c2csc(Nc3ccc(C(=O)N4CCCCC4)cn3)n2)s1 measurement_type=solubility relational_operator== number=0.8
compound=Cc1nc(C)c(-c2csc(Nc3ccc(C(=O)O)cn3)n2)s1 measurement_type=solubility relational_operator=> number=50
compound=Cc1nc(C)c(-c2csc(Nc3ccc(C(=O)NC4CCCCC4)cn3)n2)s1 measurement_type=solubility relational_operator== number=1.8
compound="Cc1nc(C)c(-c2csc(Nc3ccc(C(=O)N4C(C)CC(=O)CC4C)cn3)n2)s1 (stereo not given)" measurement_type=solubility relational_operator== number=45
compound=Cc1nc(C)c(-c2csc(Nc3ccc(C(=O)N(C)c4ccc(Cl)cc4)cn3)n2)s1 measurement_type=solubility relational_operator== number=1.4
compound=Cc1nc(C)c(-c2csc(Nc3ccc(C(=O)N4C5COCC4CC(=O)C5)cn3)n2)s1 measurement_type=solubility relational_operator=> number=50
compound=Cc1nc(C)c(-c2csc(Nc3ccc(C(=O)NCc4ccc(Cl)cc4)cn3)n2)s1 measurement_type=solubility relational_operator== number=2.5

---

- procedure_details: Protein binding in guinea pig plasma
- Format: ADME, cell-free, Cavia porcellus
- test_parameters: read-out: PPB (converted)
measurement_type: fraction unbound

smiles_data=Cc1nc(C)c(-c2csc(Nc3ccc(C(=O)N4C5COCC4CC(=O)C5)cn3)n2)s1 number=0.1

---

- tested_system: UniProt:Q9HBA0
- procedure_details: Antagonist activity at human recombinant TRPV4 expressed in CHO-K1 cells assessed as blockade of hypotonic solution-induced calcium mobilization by FLIPR assay
- Assay type: cell-based
measurement_type: IC50

smiles_data=Cc1nc(C)c(-c2csc(Nc3ccc(C(=O)N4C5COCC4CC(=O)C5)cn3)n2)s1 result="3.1 nM"

---

- tested_system: Transient receptor potential cation channel subfamily V member 4 (Homo sapiens)
- Sequence (Q9HBA0 whole entry): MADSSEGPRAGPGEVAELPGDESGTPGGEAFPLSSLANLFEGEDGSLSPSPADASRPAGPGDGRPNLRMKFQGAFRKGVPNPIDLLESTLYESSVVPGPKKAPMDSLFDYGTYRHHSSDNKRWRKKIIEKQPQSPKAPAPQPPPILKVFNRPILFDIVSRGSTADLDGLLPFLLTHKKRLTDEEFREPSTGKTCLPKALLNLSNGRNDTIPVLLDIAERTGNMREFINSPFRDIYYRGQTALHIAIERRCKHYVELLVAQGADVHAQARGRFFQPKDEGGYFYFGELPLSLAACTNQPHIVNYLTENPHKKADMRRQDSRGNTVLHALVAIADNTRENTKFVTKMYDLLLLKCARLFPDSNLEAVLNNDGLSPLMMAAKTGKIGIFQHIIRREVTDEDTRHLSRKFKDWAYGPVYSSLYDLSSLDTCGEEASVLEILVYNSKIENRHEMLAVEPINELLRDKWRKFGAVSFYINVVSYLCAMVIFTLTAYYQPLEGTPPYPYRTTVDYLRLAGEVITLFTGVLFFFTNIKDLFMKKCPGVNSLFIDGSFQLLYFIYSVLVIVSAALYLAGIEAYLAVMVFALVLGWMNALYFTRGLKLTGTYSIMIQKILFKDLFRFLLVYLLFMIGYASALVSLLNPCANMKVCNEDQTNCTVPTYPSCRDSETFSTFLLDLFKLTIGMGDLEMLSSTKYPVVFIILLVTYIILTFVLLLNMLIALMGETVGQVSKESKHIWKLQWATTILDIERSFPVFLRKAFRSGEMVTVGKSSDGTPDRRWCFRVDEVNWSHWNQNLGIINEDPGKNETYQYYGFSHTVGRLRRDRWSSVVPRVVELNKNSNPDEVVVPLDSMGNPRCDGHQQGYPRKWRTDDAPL
- procedure_details: Antagonist activity at human recombinant TRPV4 expressed in CHO-K1 cells assessed as blockade of 1000 nM 4alphaPDD-induced calcium mobilization by FLIPR assay
- Type: cell-based
Reported IC50 values for a set of compounds
measurement_type: IC50 (nM)

compound=COc1cccnc1Nc1nc(-c2sc(C)nc2C)cs1 reading_unit=nM relational_operator=> number=10000
compound=Cc1nc(C)c(-c2csc(Nc3ccc(C(=O)O)cn3)n2)s1 reading_unit=nM relational_operator=> number=10000
compound=CCNC(=O)c1ccc(Nc2nc(-c3sc(C)nc3C)cs2)nc1 reading_unit=nM relational_operator=> number=10000
compound=Cc1nc(C)c(-c2csc(Nc3ccncc3)n2)s1 reading_unit=nM relational_operator== number=3300
compound=Cc1nc(C)c(-c2csc(Nc3ccc(NC(=O)c4ccc(Cl)cc4)cn3)n2)s1 reading_unit=nM relational_operator=> number=10000
compound=Cc1nc(C)c(-c2csc(Nc3ccc(C(=O)NCc4ccc(Cl)cc4)cn3)n2)s1 reading_unit=nM relational_operator== number=200
compound=Cc1nc(C)c(-c2csc(Nc3cc(C#N)ccn3)n2)s1 reading_unit=nM relational_operator== number=240
compound="Cc1nc(C)c(-c2csc(Nc3ccc(C(=O)N4C(C)CC(=O)CC4C)cn3)n2)s1 (centres undefined)" reading_unit=nM relational_operator== number=46
compound=Cc1nc(C)c(-c2csc(Nc3ccc(NS(=O)(=O)c4ccc(Cl)cc4)cn3)n2)s1 reading_unit=nM relational_operator== number=240
